Where these numbers come from: patent US20240166738A1

Biological target: GST-TMEM106B (truncated, comprising amino acids 122-210 of SEQ ID NO:1) (Homo sapiens, UniProt Q9NUM4)
Sequence (Q9NUM4 122-210): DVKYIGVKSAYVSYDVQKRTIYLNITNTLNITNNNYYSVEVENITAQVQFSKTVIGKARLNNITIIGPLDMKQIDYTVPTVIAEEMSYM
Assay: Pre-mix epitope binning of anti-TMEM106B antibodies (Carterra / Lake Pharma)
Assay type: binding
Settings: epitope bin number; pre-mix binning on truncated GST-TMEM106B
Method: Monoclonal anti-TMEM106B antibodies were immobilized to a CMD 50M chip (Xantec # SPMXCMD5OM lot# SCCMD50M0416). The running buffer was HBS-EP+ with 1 mg/mL BSA. The GST-TMEM106B (truncated, comprising amino acids 122-210 of SEQ ID NO:1) antigen was prepared at a final concentration of 55 nM (corresponding to 2 μg/mL) and mixed with the competing analyte anti-TMEM106B antibodies at a final concentration of 333 nM (corresponding to 50 μg/mL) or compared to a buffer control. […]
ASSAY METRIC: Binding Community/Bin
// keep it numeric: no unit symbol after the value

q: // Binding Community/Bin lookup, key: TM-79: anti-TMEM106B monoclonal antibody; VH SEQ ID NO: 484, VL SEQ ID NO: 519 (antibody, V domains shown, Variable Heavy Chain -- TM-79; Variable Light Chain -- TM-79) VH: EVQLQQSGPELVKPGASVKMSCKASGYTFTNYVMHWLKQKPGQGLEWIAHITPHNDGTKYNEKFKGKATLTSDRSSSTAYMELNSLTSEDSAIYYCARSGQFGRGDYFHYWGQGTTVTVSS VL: DIVLTQSPASLAVSLGQRATISCRASKSVSTSGSIYIHWYQQKPGQPPKLLIYLTSNLESGVPARFSGSGSGTDFTLNIHPVEEEDAATYYCQHSGELPWTFGGGARLEIK
a: 1

q: // Binding Community/Bin lookup, key: TM-61: anti-TMEM106B monoclonal antibody; VH SEQ ID NO: 467, VL SEQ ID NO: 503 (antibody, V domains shown, Variable Heavy Chain -- TM-61; Variable Light Chain -- TM-61) VH: QVQLQQSGAELAKPGASVKLSCKASGYTFTNYWMNWVKQRPGQGLEWIGYINPSSDYTKYNQNFKDKATLTADKSSSTAYMQLNSLTYEDSAVYYCTRWGGSRSYWYFDVWGAGTTVTVSS VL: DIVMTQSPSSLSASAGEKVTMSCKSSQSLLNSGNQKNYLAWYQQKPGQSPKLLIYGASTRESGVPDRFTGSGSGTDFTLTISSVQAEDLAVYYCQNDSNYPFTFGGGTKLEMK
a: 2
